Reference source: the supplement of paper PMC10065799

System: c-Abl (mouse)
Assay: phosphorylation enrichment, bacterial display (enrichment ratio); higher = better substrate or ligand; peptides without Tyr show the background;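 also: 11-residue human phosphosite peptides and single-mutation variants displayed on the E. coli surface, counted by deep sequencing, each peptide's frequency after selection divided by its frequency in the unselected input library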;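 also: frequency after pTyr selection over input frequency; kinase dosed for 20-30% of maximal phosphorylation in three min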
Measured Attribute: phosphorylation enrichment

> print(dat)
                       monomer.sequence  target.entity  reading
 1      ERDYTYDELLN [EIF2S2_Y176_E177D]  c-Abl (mouse)    0.887
 2   GLCSFYETSKM [MAGED2_Y449_R446C_YF]  c-Abl (mouse)     0.82
 3     EARRVYRDIIH [ALDH5A1_Y175_G176R]  c-Abl (mouse)    0.528
 4  ADFFDYGRGLS [KHDRBS3_Y304_H306R_YF]  c-Abl (mouse)     0.59
 5     CTTFHYNFMCN [TP53_Y234_I232F_YF]  c-Abl (mouse)    0.641
 6         PTQLPYDHKWK [KIT_Y578_E583K]  c-Abl (mouse)    0.634
 7               LEKISYVYMKR [SSX7_Y48]  c-Abl (mouse)      1.3
 8       SIKDKYLTALY [KCNH2_Y611_V612L]  c-Abl (mouse)    0.487
 9     NTFENYWPFFQ [GATM_Y103_K102N_YF]  c-Abl (mouse)     1.22
10       LLVVVYKYRCY [PSEN1_Y154_L153V]  c-Abl (mouse)     1.65
11    HFGCVYFGTLL [MET_Y1093_H1094Y_YF]  c-Abl (mouse)    0.695
12         DKPENYRRLDI [VHL_Y175_V170D]  c-Abl (mouse)     0.39
13        TSESSYYKSLN [NGEF_Y288_A286S]  c-Abl (mouse)    0.499
14             PVDVAYRRGYF [PLEC_Y2967]  c-Abl (mouse)    0.743
15     CITIHYNFMCN [TP53_Y234_T230I_YF]  c-Abl (mouse)    0.661
16             NGRQCYSCKGN [PLAUR_Y217]  c-Abl (mouse)    0.416
17         PFADPYFDFEI [ZC3H18_Y371_YF]  c-Abl (mouse)    0.811
18        VFGVSYDEYRY [CFTR_Y512_I507V]  c-Abl (mouse)    0.566
19          REQREYLDQLN [CCDC88B_Y1277]  c-Abl (mouse)     2.21
20           YETSHYPASPD [CTNND2_Y1217]  c-Abl (mouse)    0.528
21       HYGNNYTDVLQ [MACC1_Y803_R804T]  c-Abl (mouse)     2.17
22  NLNGKYFKPRA [ANGPTL3_Y417_N418Y_YF]  c-Abl (mouse)    0.469
23           APEVIYATPGA [ABLtide_2014]  c-Abl (mouse)     34.4
24       AVISVYDLVAF [PSEN1_Y256_V261F]  c-Abl (mouse)    0.887
25      LLNPSYNLPLD [TOM1L1_Y109_R108S]  c-Abl (mouse)    0.855
26             GKLIFYDLRGE [KARS1_Y145]  c-Abl (mouse)    0.664
27              RRFSSYSQMEN [PKP1_Y120]  c-Abl (mouse)    0.808
28       QLHRKYCLSPR [HJURP_Y445_E444K]  c-Abl (mouse)    0.679
29        TTPGPHRSIFF [MPG_Y71_Y71H_YF]  c-Abl (mouse)    0.542
30     TLNVRHESVQA [CEACAM7_Y236_Y236H]  c-Abl (mouse)    0.415
31            GFDHSYFFIAT [ESD_Y262_YF]  c-Abl (mouse)     1.15
32      YETDYYQKGGK [INSR_Y1190_R1191Q]  c-Abl (mouse)    0.526
33     QHVPDYRQNGY [PCDHGA1_Y890_V894G]  c-Abl (mouse)    0.621
34         AAILGYCHGEA [XPC_Y669_R671H]  c-Abl (mouse)      0.7
35               NIEPVYLNMLL [ATR_Y317]  c-Abl (mouse)     4.49
36              QRKPSYNQLAS [BRCA2_Y71]  c-Abl (mouse)    0.471
37      IALNSCHSRNC [IFNGR1_Y397_Y397C]  c-Abl (mouse)     0.36
38        STTIHYNYMCN [TP53_Y234_C229S]  c-Abl (mouse)     0.71
39        RRGMPYGGCGD [TGM1_Y312_R315C]  c-Abl (mouse)    0.595
40      VGTKQYMAPEV [ACVRL1_Y375_R374Q]  c-Abl (mouse)    0.674
41              WFPSTYVEEDE [VAV3_Y842]  c-Abl (mouse)    0.875
42        SVTCTYSSALN [TP53_Y126_P128S]  c-Abl (mouse)    0.728
43            EQLQSYQAEII [KRT33A_Y268]  c-Abl (mouse)    0.988
44              GFSDPYVKASL [SYT3_Y470]  c-Abl (mouse)    0.544
45         VCHELYNAIRD [PBRM1_Y54_T56A]  c-Abl (mouse)    0.693
46            GPGGDYAAMGA [ERBB3_Y1276]  c-Abl (mouse)    0.572
47         TVQVAYFTMMM [SPATA17_Y83_YF]  c-Abl (mouse)    0.791
48        SVTCTYSPALS [TP53_Y126_N131S]  c-Abl (mouse)     1.42
49         RLQEDYDHSYY [ESD_Y258_G257D]  c-Abl (mouse)    0.943
50           SEHLTYLEFKS [RASGRP1_Y215]  c-Abl (mouse)     1.09
51      QRIYQYIRSRF [DYRK1B_Y273_Q275R]  c-Abl (mouse)     1.27
52     FSCLPYRRLAY [SLC52A2_Y305_G306R]  c-Abl (mouse)     1.22
53         RRIHSYRGHLC [VHL_Y112_W117C]  c-Abl (mouse)    0.534
54                          ANNEYYFQVCA  c-Abl (mouse)     1.01
55         TVDASYFGGRG [ANTXR2_Y380_YF]  c-Abl (mouse)    0.519
56              KSEKVYTRHGV [FLOT1_Y56]  c-Abl (mouse)    0.401
57       SIKNKYVTALY [KCNH2_Y611_D609N]  c-Abl (mouse)    0.454

====

Molecular target: Jak2 (UniProt O60674)
Sequence (O60674 whole entry, looked up): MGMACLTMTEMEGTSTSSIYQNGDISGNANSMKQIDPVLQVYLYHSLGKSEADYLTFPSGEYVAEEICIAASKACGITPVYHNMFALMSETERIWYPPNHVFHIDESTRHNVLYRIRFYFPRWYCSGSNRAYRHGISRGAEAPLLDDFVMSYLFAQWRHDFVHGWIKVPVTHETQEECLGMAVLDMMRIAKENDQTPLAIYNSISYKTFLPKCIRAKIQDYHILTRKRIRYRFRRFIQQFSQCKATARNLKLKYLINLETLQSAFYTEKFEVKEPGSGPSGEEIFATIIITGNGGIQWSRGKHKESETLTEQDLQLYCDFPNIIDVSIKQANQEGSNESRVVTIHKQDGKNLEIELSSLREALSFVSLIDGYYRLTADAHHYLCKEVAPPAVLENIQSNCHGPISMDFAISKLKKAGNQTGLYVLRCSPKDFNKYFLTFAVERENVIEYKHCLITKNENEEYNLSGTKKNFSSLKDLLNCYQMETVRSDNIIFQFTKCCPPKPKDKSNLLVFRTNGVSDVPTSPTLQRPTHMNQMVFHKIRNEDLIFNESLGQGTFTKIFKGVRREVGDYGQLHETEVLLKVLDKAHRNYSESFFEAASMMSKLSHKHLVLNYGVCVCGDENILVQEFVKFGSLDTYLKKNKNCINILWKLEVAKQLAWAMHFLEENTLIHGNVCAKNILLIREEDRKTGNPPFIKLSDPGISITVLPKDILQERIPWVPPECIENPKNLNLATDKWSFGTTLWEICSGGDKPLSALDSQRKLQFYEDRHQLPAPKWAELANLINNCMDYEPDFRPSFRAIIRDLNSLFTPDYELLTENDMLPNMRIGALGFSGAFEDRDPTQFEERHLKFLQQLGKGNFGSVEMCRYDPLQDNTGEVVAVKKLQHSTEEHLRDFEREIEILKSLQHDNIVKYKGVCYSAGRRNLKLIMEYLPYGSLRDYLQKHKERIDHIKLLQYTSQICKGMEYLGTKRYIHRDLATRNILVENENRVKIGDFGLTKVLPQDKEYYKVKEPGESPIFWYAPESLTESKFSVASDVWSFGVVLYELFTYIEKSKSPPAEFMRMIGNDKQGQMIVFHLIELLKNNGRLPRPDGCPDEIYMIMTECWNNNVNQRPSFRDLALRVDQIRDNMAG
Test: phosphorylation enrichment, bacterial display (enrichment ratio); higher = better substrate or ligand; peptides without Tyr show the background
Response field class: enum, chosen by comparing phosphorylation enrichment against class 0 (below 0.7), class 1 (0.7 to below 1), class 2 (1 or more)

> print(dat)
                     monomer.sequence  answer.label
 1  HFGCVYFGTLL [MET_Y1093_H1094Y_YF]       class 2
 2      SDPIVYTLENI [EMR1_Y534_I533V]       class 2
 3         YGAHNHHPLPV [OAT_Y55_Y55H]       class 0
 4           LHRHAYPEQRQ [DPPA2_Y127]       class 0
 5  KTGNIYRTEFG [MRPL3_Y265_M261T_YF]       class 0
 6          NTEGGYRCICA [CRELD1_Y328]       class 1
 7             FKELVYETVRV [FSHB_Y76]       class 1
 8     ALECLYRREKR [TEKT5_Y195_H196R]       class 1
 9      EYKDAYTFAAD [BRDT_Y335_K336T]       class 2
10      YAFQLYDLDPD [CHP2_Y123_R127P]       class 2
11         DLFRLYVCVKE [ARID1B_Y1091]       class 2

====

Form field: phosphorylation enrichment (one value per entry).
Target: MERTK (UniProt Q12866)
Sequence (Q12866 whole entry, looked up): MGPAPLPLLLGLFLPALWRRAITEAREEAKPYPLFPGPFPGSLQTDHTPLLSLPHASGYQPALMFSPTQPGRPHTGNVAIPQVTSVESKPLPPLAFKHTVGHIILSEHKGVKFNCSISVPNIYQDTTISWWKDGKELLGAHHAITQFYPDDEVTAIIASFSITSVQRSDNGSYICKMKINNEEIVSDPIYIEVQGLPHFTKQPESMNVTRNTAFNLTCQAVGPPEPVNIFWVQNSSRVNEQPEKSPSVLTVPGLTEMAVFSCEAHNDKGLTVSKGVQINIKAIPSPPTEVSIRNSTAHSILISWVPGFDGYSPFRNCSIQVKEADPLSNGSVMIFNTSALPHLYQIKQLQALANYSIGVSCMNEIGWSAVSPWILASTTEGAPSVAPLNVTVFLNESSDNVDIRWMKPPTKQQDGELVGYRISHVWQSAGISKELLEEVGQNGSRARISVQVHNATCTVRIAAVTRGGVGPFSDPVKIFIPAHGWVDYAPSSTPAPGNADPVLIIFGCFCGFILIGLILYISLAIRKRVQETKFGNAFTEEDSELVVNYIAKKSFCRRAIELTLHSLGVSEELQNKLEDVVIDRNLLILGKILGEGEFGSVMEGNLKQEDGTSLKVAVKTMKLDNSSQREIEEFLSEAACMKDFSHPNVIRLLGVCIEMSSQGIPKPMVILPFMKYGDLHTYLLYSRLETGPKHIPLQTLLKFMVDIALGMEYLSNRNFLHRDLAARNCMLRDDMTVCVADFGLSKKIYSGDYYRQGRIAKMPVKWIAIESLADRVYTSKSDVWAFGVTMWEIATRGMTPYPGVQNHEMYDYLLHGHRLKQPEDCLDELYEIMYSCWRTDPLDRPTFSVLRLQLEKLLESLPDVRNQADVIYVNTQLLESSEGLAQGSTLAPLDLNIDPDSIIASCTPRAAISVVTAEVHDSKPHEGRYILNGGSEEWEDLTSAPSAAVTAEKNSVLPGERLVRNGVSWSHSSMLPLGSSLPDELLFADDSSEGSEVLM
Assay: phosphorylation enrichment, bacterial display (enrichment ratio); higher = better substrate or ligand; peptides without Tyr show the background
Measured Attribute: phosphorylation enrichment

> print(dat)
                monomer.sequence           target.entity          measured.attribute  reading
1      ALEQKYWALGQ [MAP1A_Y1555]  MERTK (UniProt Q12866)  phosphorylation enrichment      1.3
2   MRTMGYMPREM [CABP5_Y62_T65R]  MERTK (UniProt Q12866)  phosphorylation enrichment    0.435
3      VTQEQYELFCE [CBL_Y368_YF]  MERTK (UniProt Q12866)  phosphorylation enrichment    0.624
4    RRVPVYGGRGA [QDPR_Y16_L14P]  MERTK (UniProt Q12866)  phosphorylation enrichment    0.779
5  ADAGMYGVLPW [PLP1_Y207_R205G]  MERTK (UniProt Q12866)  phosphorylation enrichment     6.35
6        EKEKKYMLPLD [DNM2_Y563]  MERTK (UniProt Q12866)  phosphorylation enrichment    0.449
7      NTEGGYRCICA [CRELD1_Y328]  MERTK (UniProt Q12866)  phosphorylation enrichment    0.484
